- Tested on: STAT1/3 through TYK2/JAK1
- assay.comment: IFNa induced STAT phosphorylation in HEK293 cells (SIE-bla reporter gene)
- Format: cell-based
- details: Homo sapiens, HEK293; HEK293T-sie-bla cells, IFNa at EC80, 4 hours; read-out: Inhibition of IFNa induced STAT phosphorylation HEK293 cells IC50
pIC50: −log10 of the molar value.
Consider the following molecules; for each one, report its pIC50.

Entry under review: `COc1cc(-c2cnn(C)c2C)c(C)nc1Nc1cc(Nc2cc(C)ncn2)ncn1` . Reported pIC50?
7.00 to 8.00

Entry under review: `COc1cc(F)ccc1Nc1cc(Nc2cc(C)nc(C)n2)ncn1` . Reported pIC50?
< 6.00

Entry under review: `Cc1cc(Nc2cc(Nc3ccc(-c4cnn(C)c4C)cc3S(C)(=O)=O)ncn2)nc(C)n1` . Reported pIC50?
> 8.00

Entry under review: `COc1c(Nc2cc(Nc3cc(C)ncn3)ncn2)cccc1-c1ncn(C)n1` . Reported pIC50?
7.00 to 8.00

Entry under review: `[2H]C([2H])([2H])N(c1cc(-c2nnc(C)n2C)cnc1Nc1cc(Nc2cc(C)nc(C)n2)ncn1)S(C)(=O)=O` . Reported pIC50?
> 8.00
